- System: Periplaneta americana
- ASSAY_DETAILS: Insecticidal activity against adult male Periplaneta americana (American cockroach) dosed through injection into abdomen assessed as mortality measured 24 hr post dose in presence of 50 ug metabolic inhibitor PB and 50 ug NIA
- Type: functional
log(1/MLD) overview
ASSAY_ENDPOINT: log(1/MLD)

>>> print(df.to_string())
                           line_notation  result_value
 0       CCCC/C(=N\C#N)N(C)Cc1ccc(Cl)nc1          6.77
 1       CCCCN(Cc1ccc(Cl)nc1)/C(C)=N/C#N          7.71
 2      CC(C)/C(=N\C#N)N(C)Cc1ccc(Cl)nc1          7.44
 3      C/C(=N\C#N)N(Cc1ccc(Cl)nc1)C(C)C          7.67
 4  CN(Cc1ccc(Cl)nc1)/C(Cc1ccccc1)=N/C#N          6.78
 5   CN(Cc1ccc(Cl)nc1)/C(=N/C#N)c1ccccc1          6.99
 6     CC(C)C/C(=N\C#N)N(C)Cc1ccc(Cl)nc1           6.9
 7      CCCCCN(Cc1ccc(Cl)nc1)/C(C)=N/C#N           7.8
 8         CCN(Cc1ccc(Cl)nc1)/C(C)=N/C#N          9.24
 9         CC/C(=N\C#N)N(C)Cc1ccc(Cl)nc1          8.54
10  O=[N+]([O-])/N=C1\NCCN1Cc1ccc(Cl)nc1         10.15
11             C/C(=N\C#N)NCc1ccc(Cl)nc1           7.5
